target: Replicative DNA helicase DnaB (Mycobacterium tuberculosis, UniProt P9WMR3); assay: DnaB intein splicing inhibitors, dose response, biochemical, cell-free fluorescence (AID 449749); assay type: functional
Structures can show the parent of a compound that is named as a salt. Active and inactive are the calls of the source.
Classes used: active, inactive

Molecule	Class
O=C(CCl)Oc1ccc2occ(C(=O)c3cccs3)c2c1	active
CCCc1ccc(/C=C2\C(=O)c3ccccc3C(O)=C2C(=O)OCC)cc1	active
Cn1c(=O)c([N+](=O)[O-])c(-n2ccnc2)c2ccccc21	active
O=C(O)COc1ccc(/C=C2/SC(=S)N(Cc3ccccc3)C2=O)cc1	active
SC1=NCCC12C(S)=Nc1ccccc12 (stereo unspecified)	inactive
CC1=NNC(=O)/C1=C\c1cn(-c2ccccc2)nc1-c1ccc(F)cc1	active
Cc1n[nH]c(O)c1C(c1cc(Br)ccc1O)c1c(C)n[nH]c1O	active
CC1=NNC(=O)C1Oc1ccccc1 (stereo unspecified)	active
Cc1c(/C=N/Nc2nc3ccccc3[nH]2)c2ccccc2n1C	active
CC[C@@H](CO)NC(=O)[C@@H]1C=C2c3cccc4c3c(cn4C)C[C@H]2N(C)C1 [METHYSERGIDE MALEATE]	inactive
Cc1ccc(-c2nc(CN3CCCC(C(=O)N4CCOCC4)C3)c(C)o2)cc1 (stereo unspecified)	inactive

----------
Let's look at some compounds and their measured EC50.
target: Peroxisome proliferator-activated receptor gamma/Nuclear receptor coactivator 3 (Homo sapiens, UniProt P37231); test: TR-FRET dose response biochemical High Throughput Screening assay for agonists of the steroid receptor coactivator 3 (SRC-3) recruitment by the peroxisome proliferator-activated receptor gamma (PPAR gamma): non-selective agonists. [Related pubchem assays: 1301 (Confirmation screen.), 1048 (Primary screen.)]; type: functional
Sequence (P37231 whole entry): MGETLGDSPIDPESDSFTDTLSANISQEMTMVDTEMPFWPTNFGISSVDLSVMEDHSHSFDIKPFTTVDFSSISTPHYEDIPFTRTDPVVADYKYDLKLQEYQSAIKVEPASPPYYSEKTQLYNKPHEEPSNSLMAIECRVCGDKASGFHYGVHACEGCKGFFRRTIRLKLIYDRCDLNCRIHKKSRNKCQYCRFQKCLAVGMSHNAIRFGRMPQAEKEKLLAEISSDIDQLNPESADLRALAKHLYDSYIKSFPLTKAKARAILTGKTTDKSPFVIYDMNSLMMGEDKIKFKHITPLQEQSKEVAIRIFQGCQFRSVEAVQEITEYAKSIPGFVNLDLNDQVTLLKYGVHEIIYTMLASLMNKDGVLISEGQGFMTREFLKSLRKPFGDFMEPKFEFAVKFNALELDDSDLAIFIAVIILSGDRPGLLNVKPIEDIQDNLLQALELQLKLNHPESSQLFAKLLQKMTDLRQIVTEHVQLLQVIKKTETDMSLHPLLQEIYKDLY
Sequence (Q9Y6Q9 whole entry, further chain): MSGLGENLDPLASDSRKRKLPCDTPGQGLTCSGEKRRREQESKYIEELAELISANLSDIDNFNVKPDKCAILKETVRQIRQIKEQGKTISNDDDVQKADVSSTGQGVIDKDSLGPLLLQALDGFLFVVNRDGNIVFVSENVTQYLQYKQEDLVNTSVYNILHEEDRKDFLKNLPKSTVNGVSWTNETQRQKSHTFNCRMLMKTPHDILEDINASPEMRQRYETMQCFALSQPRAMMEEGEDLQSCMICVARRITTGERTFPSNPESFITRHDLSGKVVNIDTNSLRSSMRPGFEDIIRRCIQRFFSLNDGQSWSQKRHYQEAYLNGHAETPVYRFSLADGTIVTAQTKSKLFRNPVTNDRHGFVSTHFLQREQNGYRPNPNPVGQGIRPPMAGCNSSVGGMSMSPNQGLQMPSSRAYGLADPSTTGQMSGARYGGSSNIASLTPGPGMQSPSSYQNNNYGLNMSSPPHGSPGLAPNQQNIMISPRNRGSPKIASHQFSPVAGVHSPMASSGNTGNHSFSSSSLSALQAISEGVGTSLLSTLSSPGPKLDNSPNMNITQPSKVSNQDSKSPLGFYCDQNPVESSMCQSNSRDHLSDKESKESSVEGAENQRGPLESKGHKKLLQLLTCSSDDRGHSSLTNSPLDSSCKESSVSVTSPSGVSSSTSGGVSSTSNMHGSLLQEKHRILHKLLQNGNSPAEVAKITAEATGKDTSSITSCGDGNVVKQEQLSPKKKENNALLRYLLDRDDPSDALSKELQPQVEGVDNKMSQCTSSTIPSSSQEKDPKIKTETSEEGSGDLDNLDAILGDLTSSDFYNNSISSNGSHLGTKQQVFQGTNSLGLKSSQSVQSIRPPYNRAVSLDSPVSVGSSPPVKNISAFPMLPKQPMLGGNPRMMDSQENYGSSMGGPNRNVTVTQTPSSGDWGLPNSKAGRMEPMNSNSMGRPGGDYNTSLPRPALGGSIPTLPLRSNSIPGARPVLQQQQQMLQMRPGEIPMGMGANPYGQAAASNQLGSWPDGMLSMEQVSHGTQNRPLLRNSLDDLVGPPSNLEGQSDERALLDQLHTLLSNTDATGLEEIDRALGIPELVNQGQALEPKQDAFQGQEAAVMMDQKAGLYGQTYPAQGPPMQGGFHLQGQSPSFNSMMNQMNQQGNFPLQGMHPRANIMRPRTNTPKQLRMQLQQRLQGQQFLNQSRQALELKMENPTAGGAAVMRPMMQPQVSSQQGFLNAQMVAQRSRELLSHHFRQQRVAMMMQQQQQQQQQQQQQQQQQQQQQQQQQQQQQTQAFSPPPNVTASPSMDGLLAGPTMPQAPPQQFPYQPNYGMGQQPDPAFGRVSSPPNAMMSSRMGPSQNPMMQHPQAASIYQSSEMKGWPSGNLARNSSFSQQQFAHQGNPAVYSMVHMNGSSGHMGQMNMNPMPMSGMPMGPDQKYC
Observable: EC50

Compound String	Observed
COc1ccc(C(=O)Nc2nc3ccc4nc(C)sc4c3s2)cc1	58.7 µM (not active)
C#CCn1/c(=N/C(=O)c2ccc(Br)s2)sc2cccc(OC)c21	18.1 µM (not active)
CCOc1ccc2c(c1)nc(SCC(=O)c1ccc(Br)s1)n2C	> 79.4 µM (not active)
O=C(CSc1ncnc2c1oc1ccccc12)N1CCCc2ccccc21	> 79.4 µM (not active)

----------
molecular target: RNA-binding protein pos-1 (Caenorhabditis elegans); test: disruptors of C. elegans POS-1 RNA interaction – biochemical, fluorescence polarization, dose response (AID 1964);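 further: purified POS-1 fused to maltose binding protein made in E. coli; potency of compounds blocking POS-1 binding to fluorescent RNA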
Sequence (G5EF15 whole entry, the tested form may be a part): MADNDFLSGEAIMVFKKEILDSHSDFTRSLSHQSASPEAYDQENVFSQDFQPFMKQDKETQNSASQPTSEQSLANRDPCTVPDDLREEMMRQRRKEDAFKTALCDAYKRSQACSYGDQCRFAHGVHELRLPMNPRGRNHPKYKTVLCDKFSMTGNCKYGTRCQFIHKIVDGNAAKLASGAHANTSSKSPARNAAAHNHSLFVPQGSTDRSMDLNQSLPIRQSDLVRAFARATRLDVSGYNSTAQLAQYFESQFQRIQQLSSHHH
Calls of active or inactive are those of the source.

Molecule	Target Of Assay	EC50
O=C(O)CCC(=O)NNc1nc(-c2ccccc2)c2cc(Cl)ccc2n1	RNA-binding protein pos-1 (Caenorhabditis elegans)	> 300 µM (not active)
Oc1cc2c(cc1O)C(c1ccccc1)CNCC2 (stereo unspecified)	RNA-binding protein pos-1 (Caenorhabditis elegans)	109 µM (active)
Cc1cc(/C=C2\C(=O)NC(=O)N(c3ccc(Br)cc3)C2=O)c(C)n1C	RNA-binding protein pos-1 (Caenorhabditis elegans)	59.7 µM (active)
Cc1cc(/C=C2\C(=O)NC(=O)N(c3ccccc3)C2=O)c(C)n1-c1ccc(C(=O)O)c(Cl)c1	RNA-binding protein pos-1 (Caenorhabditis elegans)	> 300 µM (not active)
COc1c(O)cccc1[C@@H](O)C1CCN(CCc2ccc(F)cc2)CC1	RNA-binding protein pos-1 (Caenorhabditis elegans)	13.8 µM (active)
CCc1ccc(C(=O)NNC(=O)c2ccc(=O)n(C)n2)cc1	RNA-binding protein pos-1 (Caenorhabditis elegans)	> 300 µM (not active)
CCOc1cccc(=O)c2c(C)n(-c3ccc(C(=O)O)cc3)c(C)c12	RNA-binding protein pos-1 (Caenorhabditis elegans)	41.3 µM (active)
Cc1ccc(C(=O)CSc2nc3c(=O)n(C)c(=O)n(C)c3[nH]2)cc1	RNA-binding protein pos-1 (Caenorhabditis elegans)	> 300 µM (not active)
O=C(O)Cc1ccc(O)c(O)c1 [3,4-DIHYDROXYPHENYLACETIC ACID]	RNA-binding protein pos-1 (Caenorhabditis elegans)	49.8 µM (active)
O=C(N/N=C/c1ccc(-c2cccc([N+](=O)[O-])c2)o1)c1ccc([N+](=O)[O-])cc1	RNA-binding protein pos-1 (Caenorhabditis elegans)	> 300 µM (not active)
COc1cc(S(=O)(=O)Nc2ccc(C)cc2)ccc1N/C=C1\C(=O)N(C)C(=O)C(C#N)=C1C	RNA-binding protein pos-1 (Caenorhabditis elegans)	2.83 µM (active)

----------
Please consider the recorded AC50 for Cytochrome P450 1A2 (Homo sapiens, UniProt P05177) in what follows.

Compound	AC50
O=C(NCCN1CCOCC1)c1ccc2ccccc2c1	31.6 µM (inconclusive)
Cc1ccc(C2CC(C(F)(F)F)n3nc(C(=O)NCCN4CCOCC4)cc3N2)cc1 (stereo unspecified)	1 µM (inconclusive)
O=c1c2ccccc2nnn1CSc1nnnn1-c1ccccc1	25.1 µM (inconclusive)
CCOC(=O)c1[nH]c(C(=O)O)c(CCN(CC)CC)c1C	39.8 µM (inconclusive)
Cc1nn(Cc2c(Cl)cccc2Cl)c(C)c1NC(=O)c1cnn2c(C(F)F)cc(-c3ccccc3)nc12	31.6 µM (inconclusive)
CN(C)c1ncc2nc(-c3cc(F)cc(F)c3)c(=O)n(C[C@H]3CCCO3)c2n1	0.0794 µM (inconclusive)

----------
test system: H9c2; assay: cells; type: functional, cell-based; conditions: Rattus norvegicus, H9c2, Myocardium;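 further: cell death induced by hydrogen peroxide oxidative stress; compound pretreatment for 60 min then peroxide exposure for 2 h; potency is for protecting the cells against peroxide damage rather than for killing them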;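 further: confirmatory concentration-response retest of ultra-high-throughput screening hits for modulation of myocardial damage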
Activity calls are given as the source filed them.

Compound String	IC50
O=C(N/N=C/c1ccc(-c2cccc([N+](=O)[O-])c2)o1)c1ccc([N+](=O)[O-])cc1	> 79 µM (inactive)
O=C(COC(=O)CCc1nc(O)c2ccccc2n1)Nc1ccc2c(c1)OCO2	> 79 µM (inactive)
O=C(CCc1nc(O)c2ccccc2n1)NCCN1C(=O)S/C(=C\c2ccc(OC(F)F)cc2)C1=O	> 79 µM (inactive)
Cc1csc2nc(COC(=O)c3ccc(Cl)c([N+](=O)[O-])c3)cc(=O)n12	> 79 µM (inactive)
CCCc1cc(N2CCN(C(=O)c3ccco3)CC2)n2c(nc3ccccc32)c1C#N	> 79 µM (inactive)
C[C@H](CO)N1C[C@H](C)[C@@H](CN(C)C(=O)Nc2ccc3c(c2)OCO3)Oc2c(NC(=O)Nc3ccc(C(F)(F)F)cc3)cccc2C1=O	21.3 µM (active)
Cc1[nH]c2ccccc2c1C(=O)CSc1nc2ccccc2[nH]1	32 µM (inactive)

----------
Recorded AC50 values (Cytochrome P450 3A4 (Homo sapiens)) are given below.

Compound String	AC50
N#Cc1ccc(CN2CCC3(CC2)CCN(C(=O)Oc2ccccc2)CC3)cc1	inconclusive
CC(=O)O[C@H]1CC[C@@]2(C)[C@@H](CC[C@H]3[C@H]2CC(=O)[C@@]2(C)[C@@H]3C[C@H]3CC(C)=CC(=O)[C@H]32)C1	inconclusive
CCSc1ncnc2c1sc1nc(-c3ccco3)c3c(c12)CC(C)(C)OC3	inconclusive

----------
Recorded measurements of EC50, one per entry
Target: Insulin-degrading enzyme (Homo sapiens, UniProt P14735)
Sequence (P14735 whole entry): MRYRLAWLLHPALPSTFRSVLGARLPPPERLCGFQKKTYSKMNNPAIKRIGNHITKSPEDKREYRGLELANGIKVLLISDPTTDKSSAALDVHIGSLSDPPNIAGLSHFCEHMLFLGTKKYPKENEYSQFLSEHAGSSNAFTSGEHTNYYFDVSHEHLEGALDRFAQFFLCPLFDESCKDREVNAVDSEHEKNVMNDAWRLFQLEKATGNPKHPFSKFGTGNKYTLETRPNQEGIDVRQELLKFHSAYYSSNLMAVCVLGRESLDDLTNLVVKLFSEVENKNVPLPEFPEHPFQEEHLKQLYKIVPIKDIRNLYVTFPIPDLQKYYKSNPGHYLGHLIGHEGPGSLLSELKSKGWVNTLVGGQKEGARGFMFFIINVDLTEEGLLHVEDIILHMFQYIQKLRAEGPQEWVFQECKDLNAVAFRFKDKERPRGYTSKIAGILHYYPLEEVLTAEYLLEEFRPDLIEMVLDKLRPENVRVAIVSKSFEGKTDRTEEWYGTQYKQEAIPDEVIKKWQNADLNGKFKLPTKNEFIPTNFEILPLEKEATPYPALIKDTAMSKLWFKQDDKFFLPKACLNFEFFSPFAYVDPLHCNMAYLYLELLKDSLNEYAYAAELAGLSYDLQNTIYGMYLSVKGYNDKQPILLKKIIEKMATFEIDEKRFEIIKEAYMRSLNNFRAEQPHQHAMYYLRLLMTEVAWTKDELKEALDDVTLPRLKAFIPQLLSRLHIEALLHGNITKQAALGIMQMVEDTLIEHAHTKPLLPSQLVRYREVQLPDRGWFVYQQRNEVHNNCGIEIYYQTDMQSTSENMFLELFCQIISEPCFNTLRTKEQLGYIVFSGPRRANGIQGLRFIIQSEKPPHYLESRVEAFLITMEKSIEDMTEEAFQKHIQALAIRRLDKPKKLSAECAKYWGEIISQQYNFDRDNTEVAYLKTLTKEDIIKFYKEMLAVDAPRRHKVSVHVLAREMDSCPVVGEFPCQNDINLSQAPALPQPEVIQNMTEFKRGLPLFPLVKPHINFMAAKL
Experiment: cellular IDE activation of Abeta substrate cleavage – fluorescence polarization, HEK cells, dose response (AID 588439)
Format: functional, cell-based
Active and inactive are the calls of the source.
Observable: EC50

Compound	Observed
CCN(c1ccccc1)S(=O)(=O)c1ccc(N2CCN(c3ccc(OC)cc3)CC2)nc1	> 54.7 µM (inactive)
CCCCCCCCCCOC(=O)C[n+]1c(COc2ccc(C)cc2)n(C)c2ccccc21	> 6.08 µM (active)
O=C(O)c1ccccc1N=Nc1ccc(O)cc1	22.3 µM (inactive)
OC(CNC1CCCCC1)C(F)(F)F (centres undefined)	> 54.7 µM (inactive)
